system: NCI-H226 lung; assay: NCI tumour cell line growth inhibition, 48 h
quantity.measured: TGI

> print(dat)
                                    compound  target.or.test.system  quantity.measured  experimental.result
 1           NCCSc1nc2ccccc2c(=O)n1-c1ccccc1          NCI-H226 lung                TGI             > 100 µM
 2  NC(N)=NCCCCCNc1noc(Cc2c[nH]c3cc(Br)ccc23)n1          NCI-H226 lung                TGI              46.9 µM
 3  OCC1OC(n2cnc3c(Cl)nc(Nc4ccccc4)nc32)CC1O (stereo not given)          NCI-H226 lung                TGI             > 100 µM
 4  O=C(CSC(c1ccccc1)c1ccccc1)N/N=C/c1ccc(Cl)cc1Cl          NCI-H226 lung                TGI             > 100 µM
 5  C=C1C[C@]23CCC4C(C)(C)C(=O)CC[C@]4(C)C2C[C@H]1C(O)C3=O (stereo not given in full)          NCI-H226 lung                TGI              > 75 µM
 6  CCCCCCCCCCCCCCCCCC(=O)O[C@H](COC(=O)CCCCCCCCCCC)COC(=O)CCCCCCCCCCCCCCC          NCI-H226 lung                TGI             > 100 µM
 7  [Au+].[Au+].[Au+].[c-]1nccn1Cc1ccccc1.[c-]1nccn1Cc1ccccc1.[c-]1nccn1Cc1ccccc1          NCI-H226 lung                TGI              71.4 µM
 8  O=C(OCC1OC2OC(c3ccccc3)(n3ccc4c([N+](=O)[O-])ccnc43)OC2C1OC(=O)c1ccccc1)c1ccccc1 (stereo not given)          NCI-H226 lung                TGI             > 100 µM
 9  Nc1nc(SN=Nc2ccc(S(N)(=O)=O)cc2)c2[nH]cnc2n1          NCI-H226 lung                TGI             > 100 µM
10                               C1CNCCNCCN1          NCI-H226 lung                TGI             > 100 µM

====

test system: A498 renal; test: NCI tumour cell line growth inhibition, 48 h
Listed below: TGI values for each entry.
quantity.measured: TGI

> print(dat)
                                    molecule  quantity.measured  experimental.result
 1  O=S1OC2(c3ccccc3-c3ccccc32)c2ccccc21 (stereo not given)                TGI             > 100 µM
 2  O=c1nc2c(c(-c3ccccc3Cl)[nH]1)COC/C2=C\c1ccccc1Cl                TGI             > 100 µM
 3  COc1cccc(-n2c3nc(=O)n(C)c(=O)c-3nc3ccccc32)c1                TGI             > 100 µM
 4  C[n+]1cc(C(O)c2ccc3c(c2)OCO3)c2ccccc2c1 (stereo not given)                TGI             > 100 µM
 5  Cc1cn(C2CC(n3cc(Cn4cc(Br)c(=O)[nH]c4=O)nn3)C(CO)O2)c(=O)[nH]c1=O (stereo not given)                TGI             > 100 µM
 6  COc1cccc(C2CC(C)=Nc3c(ccc4c3C(=O)c3ccccc3C4=O)N2)c1O (stereo not given)                TGI             > 100 µM
 7           O=C1c2ccccc2CCCCCCCCCCC12OCCCO2                TGI              97.5 µM
 8  O=C(COc1ccc(/C=C2\CSc3ccccc3C2=O)cc1)Nc1nccs1                TGI              29.2 µM
 9  Cc1ccc2c(c1)[nH]c1cc(C(F)(F)F)ccc1[p+]2=O (stereo not given)                TGI              74.5 µM
10  Cc1cc(N/N=C/c2nc(-c3ccc(Br)cc3)oc2C)c2cc(Br)ccc2n1                TGI              53.2 µM
